Experiment: Toxicity liver stage against HepG2, at 10uM
Type: cell-based
Set-up: test concentration 10 uM, cell line HepG2-A16-CD81EGFP
Conditions: human, HepG2-A16-CD81EGFP cells; read-out: INHIBITION
Catalogue of compounds with associated cytotoxicity at 10 µM
Quick note: give the figure in %, leave out the unit.

> print(dat)
                                   compound  unit.descriptor  endpoint.result
1     COc1cc(CNCc2ccnc(N3CCCCC3)c2)cc(OC)c1                %             28.9
2  COCCNC(=O)[C@H]1CN(c2nnc(C)s2)C[C@H]2OCC[C@@H]12                %            -1.96
3  CCc1ccc(O)c(C(=O)N2CCN(CC(=O)N(C)C)CC2)c1                %              2.8

With those in mind, consider the next compound.
Quick one: cytotoxicity at 10 µM of CCN1CC(C(=O)NCCc2csc(-c3ccncc3)n2)CC1=O (stereo unspecified) ?
-5.64
